src = paper PMC3867265

molecular target: mouse MT1 receptor (Mus musculus)
Sequence (Q61184 whole entry): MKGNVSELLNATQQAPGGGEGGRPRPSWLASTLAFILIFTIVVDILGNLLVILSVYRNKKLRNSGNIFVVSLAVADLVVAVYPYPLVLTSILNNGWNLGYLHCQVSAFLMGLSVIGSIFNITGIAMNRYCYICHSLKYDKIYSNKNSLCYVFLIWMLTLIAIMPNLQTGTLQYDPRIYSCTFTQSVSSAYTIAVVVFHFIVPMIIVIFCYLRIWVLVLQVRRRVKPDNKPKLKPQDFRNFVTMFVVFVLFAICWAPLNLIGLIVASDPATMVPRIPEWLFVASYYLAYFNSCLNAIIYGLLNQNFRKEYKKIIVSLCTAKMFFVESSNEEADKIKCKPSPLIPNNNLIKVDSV
observation-type: pKi
API: returns pKi as number; meaning -log10 of concentration in mol/L.

Please look up its pKi: CCCC(=O)NCCc1c2n(c3ccc(OC)cc13)Cc1ccccc1-2 [IIK7]
7.14

----------
target: UniProtKB Q61184; experiment: cell-based
observation-type: pIC50
# pIC50 is unitless: minus log10 of the molar concentration; print number only

Can you look up the measured pIC50 of CCC(=O)N[C@@H]1Cc2ccccc2[C@H](c2ccccc2)C1 (relative stereo) [4P-PDOT, cis-4-Phenyl-2-propionamidotetralin] for me?
8.24

----------
biological target: MT1/MT2 heteromers (Mus musculus, UniProt Q61184+Q8CIQ6); assay: cell-based
Sequence (Q61184 whole entry): as above
Sequence (Q8CIQ6 whole entry): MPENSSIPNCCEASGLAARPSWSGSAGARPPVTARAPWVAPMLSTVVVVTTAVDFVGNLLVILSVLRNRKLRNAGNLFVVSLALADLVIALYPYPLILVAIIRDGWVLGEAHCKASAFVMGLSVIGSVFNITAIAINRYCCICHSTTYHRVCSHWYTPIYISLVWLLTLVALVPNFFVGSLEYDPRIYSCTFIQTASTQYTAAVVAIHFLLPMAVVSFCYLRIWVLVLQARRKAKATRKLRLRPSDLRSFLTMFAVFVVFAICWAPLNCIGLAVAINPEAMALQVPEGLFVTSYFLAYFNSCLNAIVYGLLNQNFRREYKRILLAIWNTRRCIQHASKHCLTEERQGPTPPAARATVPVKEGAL
observation-type: pIC50
FYI, pIC50 means -log10 of a concentration in mol per litre.

Which pIC50 value belongs to CCC(=O)N[C@@H]1Cc2ccccc2[C@H](c2ccccc2)C1 (relative stereo) [4P-PDOT, cis-4-Phenyl-2-propionamidotetralin] ?
8.40

----------
target: UniProtKB Q8CIQ6; test: Inositol phosphate production, HEK293T cells expressing MT2 alone
observation-type: EC50 (nM)
Answer in nM, number only, no unit symbol.

Quick check: EC50 of COc1ccc2[nH]cc(CCNC(C)=O)c2c1 [melatonin] ?
51
